From: the array DNA melting data of Ke et al. (doi:10.1101/2024.01.08.574731)

Reported folding enthalpy values for a set of sequences
# Test Details: folding enthalpy; higher = less favourable; fluorescence melt of hairpins on a sequencing array, two-state fit
# Condition Set: sodium 0.088 M
Experimental Endpoint: folding enthalpy

{"columns": ["Chain", "Measured Result"],
 "data": [
  ["GATCGAGCGTCGATC ((((((...))))))", "-31.7 kcal/mol"],
  ["GATCATTGTAATGATC ((((((....))))))", "-36 kcal/mol"],
  ["GGGACCGAAAGGTGCCCC ((((((....)))..)))", "-13.5 kcal/mol"],
  ["GATCATAAGATGATC ((((((...))))))", "-31.1 kcal/mol"],
  ["GCCATCGGAAACGGTGGC ((((.((....)).))))", "-46.7 kcal/mol"],
  ["GTCCCTCGAAAGAGAGAC (((.(((....))).)))", "-23.3 kcal/mol"],
  ["GGAACTGGAAACAGTTCC (((((((....)))))))", "-42.7 kcal/mol"],
  ["GAGACTGCGAAAGCACTC (((..(((....))))))", "-9.86 kcal/mol"],
  ["GGAACGGGAAACCATTCC ((((.((....)).))))", "-30.2 kcal/mol"],
  ["GGGAGTGAAAACTCCC ((((((....))))))", "-34.1 kcal/mol"],
  ["GTGGAGGGAAACCTTCAC (((.(((....))).)))", "-31.9 kcal/mol"],
  ["GATCAATGTCTTGATC ((((((....))))))", "-27.9 kcal/mol"],
  ["GGACCAGGAAACCAGTCC ((((..(....)..))))", "-20.3 kcal/mol"],
  ["TCCTGGAAACAGGA (((((....)))))", "-18.4 kcal/mol"],
  ["GGCGTAGAAATACGCC ((((((....))))))", "-37.5 kcal/mol"],
  ["GAGTGGCGAAAGCCCCTC (((.(((....))).)))", "-19.9 kcal/mol"],
  ["GCAATGCGAAAGCTTAGC ((.(.((....)).).))", "-15.9 kcal/mol"],
  ["GTTGTCCGAAAGGATAAC (((.(((....))).)))", "-44.9 kcal/mol"],
  ["GGTATGGGAAACCATGTC (..((((....))))..)", "-13.5 kcal/mol"],
  ["GTAGACCGAAAGGTATAC (((.(((....))).)))", "-36 kcal/mol"],
  ["GCGGTAAACCGC ((((....))))", "-26.2 kcal/mol"],
  ["GCCGGGCGAAAGCGCTGC ((.(.((....)).).))", "-20.3 kcal/mol"],
  ["GTCAACGGAAACGTTAAC ((.((((....)))).))", "-17.6 kcal/mol"],
  ["GATCACTAAGGTGATC ((((((....))))))", "-35.4 kcal/mol"],
  ["GACGTGGGAAACTACGTC (((((.(....).)))))", "-38.4 kcal/mol"],
  ["GTGCGGCGAAAGCCCAC (((.(((....))))))", "-20.7 kcal/mol"],
  ["GCGCCGCGAAAGCCACGC (((..((....))..)))", "-17.4 kcal/mol"],
  ["GCTTCCCGAAAGGGGAGC (((.(((....))).)))", "-46 kcal/mol"],
  ["GTCTAACGAAAGTTTGAC (((.(((....))).)))", "-36.7 kcal/mol"],
  ["GGTAAAGAAATTTACC ((((((....))))))", "-26 kcal/mol"],
  ["GTGAGGCGAAAGCCCAC (((.(((....))))))", "-18.4 kcal/mol"],
  ["GCTTCACCGAAAGGTAGC (((..(((....))))))", "-16.8 kcal/mol"],
  ["GGACCCGAAAGGGCTCC ((((((....))).)))", "-23.1 kcal/mol"],
  ["GCTTGCGAAAGCACGAGC ((((((....)))..)))", "-15.9 kcal/mol"],
  ["GATCCTCTAAGGATC ((((((...))))))", "-33.3 kcal/mol"],
  ["GTTCTCGAAAGAGAGAAC ((((((....)))..)))", "-25.1 kcal/mol"],
  ["GCTGGCCCGAAAGGGAGC (((..(((....))))))", "-12.7 kcal/mol"],
  ["GCACGGCGAAAGCTATGC (((..((....))..)))", "-19.9 kcal/mol"],
  ["GATCTCTATGAGATC ((((((...))))))", "-31.3 kcal/mol"],
  ["GTCTGTGGAAACACGGAC (((.(((....))).)))", "-34.9 kcal/mol"],
  ["GCCTTCGAAAGAATGGGC ((((((....)))..)))", "-28.1 kcal/mol"],
  ["GCACACGGAAACGCATGC (((..((....))..)))", "-12.7 kcal/mol"],
  ["GGCCAGCCGAAAGGCGCC (((..(((....))))))", "-13.4 kcal/mol"],
  ["GTGCTCGAAAGAGGCCAC ((((((....)))..)))", "-16 kcal/mol"],
  ["GATCATTTACATGATC ((((((....))))))", "-35.2 kcal/mol"],
  ["GCCGCTCGAAAGAGAGGC (((.(((....))).)))", "-40 kcal/mol"],
  ["GTGGGGCCGAAAGGCCAC (((..(((....))))))", "-16.2 kcal/mol"],
  ["CGAACGGAAACGTCCTCG ((((((....)))..)))", "-11.4 kcal/mol"],
  ["GCGCAGCGAAAGCAGTGC ((.(.((....)).).))", "-12 kcal/mol"],
  ["GTAGGCGAAAGCCTGTAC ((((((....)))..)))", "-9.44 kcal/mol"]
]}

----------
# Test Details: melting temperature; fluorescence melt of hairpins on a sequencing array, two-state fit, raised by 9.35 °C to match UV melts
# Condition Set: sodium 0.088 M
Reported Tm values for a set of sequences

{"columns": ["Chain", "Tm [°C]"],
 "data": [
  ["GGCTCAGGAAACCGAGCC (((((.(....).)))))", 54.5],
  ["GTAATGCGAAAGCACTAC (((.(((....))).)))", 39.4],
  ["GTACTTCGAAAGAATTAC (((.(((....))).)))", 32.2],
  ["GCGGTTCGAAAGAACGC (((.(((....))))))", 61.2],
  ["GCCGTGGCGAAAGCCGGC (((..(((....))))))", 62.8],
  ["GTGCAGGCGAAAGCCCAC (((..(((....))))))", 48.9],
  ["GTGGTCGGAAACGACCGC (.(((((....))))).)", 63],
  ["GCGTGGGGAAACCCATGC ((.((((....)))).))", 57.9],
  ["GTAATCGAAAGATTATAC ((((((....)))..)))", 33.4],
  ["GAGAACGAAAGTTAGCTC ((((((....)))..)))", 24.5],
  ["GGCAGTCGAAAGACGCC (((.(((....))))))", 65],
  ["GTTTGAACGAAAGTTAAC (((..(((....))))))", 24.4]
]}

----------
# Test Details: folding enthalpy; higher = less favourable; fluorescence melt of hairpins on a sequencing array, two-state fit
# Condition Set: sodium 0.088 M

{"columns": ["Chain", "folding enthalpy (kcal/mol)"],
 "data": [
  ["GCGGCGCGAAAGCCACGC (((..((....))..)))", -20.8],
  ["GCTTCGCGAAAGCAAGGC ((.(.((....)).).))", -12.3],
  ["GTGAGATCGAAAGATCAC (((..(((....))))))", -17.6],
  ["GCGAGTGGAAACGTTCGC ((((..(....)..))))", -24.6],
  ["GAATTCGAAAGAATTC ((((((....))))))", -44.9],
  ["GATGGTGGAAACGCTATC (((.(.(....).).)))", -16.2]
]}

----------
# Test Details: melting temperature; fluorescence melt of hairpins on a sequencing array, two-state fit, raised by 9.35 °C to match UV melts
# Condition Set: sodium 0.088 M
Experimental Endpoint: Tm (°C)

{"columns": ["Chain", "Experimental Endpoint", "Measured Result"],
 "data": [
  ["GATCAGCACCTGATC ((((((...))))))", "Tm", 48.3],
  ["GAAGTCGAAAGACTTC ((((((....))))))", "Tm", 65.7],
  ["GTGTATGGAAACACACAC ((((.((....)).))))", "Tm", 38.1],
  ["GATCACATTGGTGATC ((((((....))))))", "Tm", 56.7],
  ["GCCGTCGGAAACGACGAC (.(((((....))))).)", "Tm", 54.8],
  ["GCCCTCCGAAAGGAAGGC (((.(((....))).)))", "Tm", 53],
  ["GATGGTGGAAACGCTATC (((.(.(....).).)))", "Tm", 31.3],
  ["GTAAGGGGAAACCCCTAC (((.(((....))).)))", "Tm", 39],
  ["GATTGGGCGAAAGCCATC (((..(((....))))))", "Tm", 26.8],
  ["GATCGTTCGTACGATC ((((((....))))))", "Tm", 55.5],
  ["GCTATCGAAAGATAGAGC ((((((....)))..)))", "Tm", 42.7],
  ["GATCCGTATGCGGATC ((((((....))))))", "Tm", 63.2]
]}
